target: T1, AAV5 (adeno-associated virus 5); assay: SPR, AAV amine-coupled to CM5 chip;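 note: nanobodies flowed as analyte at seven concentrations spanning 1–100 nM over immobilized AAV (500–800 RU), kinetic constants derived by fitting the binding curves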
T1 construct: also called adeno-associated virus serotype 5
Mark fulfilled only for Kd values smaller than 30 nM; exact matches and larger values are not fulfilled.

Answered examples (5):
Query block: Threshold test, Kd < 30 nM: A4-054 (VHH) VHH: VQLQESGGGLVQPGGSLRLSCAASGSAFSINTMGWYRQAPGKQRELVAAVTRGGSTNYADSVKGRFTISRDNAKNTVYLQMNSLRPEDTAVYYCHVDEVRQSSWTTSNLWGQGTQVTVSS
Result block: not fulfilled

Query block: Moving on to the next binder: A4-061 (VHH) VHH: VQLQESGGGLVQPGGSLRLSCAASGSRFSLNTMGWYRQAPGKQRELVATVTRGGSTNYANSVKGRFTISRDNAKNTVYLQMNSLRPEDTAVYYCHVDEVRQSTWTTSNLWGQGTQVTVSS
Result block: not fulfilled

Query block: Lookup A4-056 (VHH) VHH: VQLQESGGGLVQPGGSLRLSCAASGSAFSINTMGWYRQAPGKQREKVAAVTRGGSTNYADSVKGRFTISRDNAKNTVYLQMNSLRPEDTAVYYCHVDEVRQSSWTTSNLWGQGTQVTVSS
Result block: not fulfilled

Query block: // same read-out, input: A4-080 (VHH) VHH: VQLQESGGGLVQPGGSLRLSCAASGSRFSLNTMGWYRQAPGKQRELVATVTRGGSTNYADFVKGRFTISRDNAKNTVYLQMNSLRPEDTAVYYCHVDELRESGWTTSNLWGQGTQVTVSS
Result block: fulfilled

Query block: Then what about the binder A4-085 (VHH) VHH: VQLQESGGGLVQPGGSLRLSCAASGSRFSLNTMGWYRQAPGKQREFVAAVTRGGNTNYGDFVKGRFTISRDNAKNTVYLQMNSLRPEDTAVYYCHVDELRESSWTTSNLWGQGTQVTVSS ?
Result block: not fulfilled

We next turn to a different binder, shown below.
Query block: Quick check: does A4-094 (VHH) VHH: VQLQESGGGLVQPGGSLRLSCVASGSIFVINTMGWYRQAPGKQRELVATVTRDGGTNYADSVKGRFTISRDNAKNTVYLQMNSLRPEDTAVYYCHIDEIRESSWTTSNLWGQGTQVTVSS have Kd under 30 nM?
Result block: not fulfilled
